assayedSystem: recombinant human MMP-13 (Homo sapiens)
experimentDescription: biochemical
testSettings: Inhibition Table B
testReadout: IC50 (nM)
Provide only the numeric value, understood in nM.

Consider the compound O=C(NCc1ccncc1)C1CCN(c2ccc(S(=O)(=O)C3(C(=O)NO)CCOCC3)cc2)CC1 and give its measured IC50.
14.5

Any idea what IC50 was measured for CCNC(=O)C1CCCN(c2ccc(S(=O)(=O)C3(C(=O)NO)CCOCC3)cc2)C1 (stereo not shown) ?
23.9

Field request: IC50 | item: O=C(NN1CCOCC1)C1CCN(c2ccc(S(=O)(=O)C3(C(=O)NO)CCOCC3)cc2)CC1
17.5

What measured IC50 goes with CCOC(=O)C1CCCCN1C(=O)C1CCN(c2ccc(S(=O)(=O)C3(C(=O)NO)CCOCC3)cc2)CC1 (stereo not shown) ?
27
